Data provenance: patent US5084453A

// reported MIC for each item listed
System: K. pneumoniae PC1-602
assayComment: in vitro antibacterial activity, agar plate dilution method
Type: cell-based
appliedConditions: Klebsiella pneumoniae, PC1602, 16 h
Protocol: Now, the in vitro antibacterial activities of the compounds of the present invention against various microorganisms, were measured by the following agar plate dilution method. One platinum loopfull of each test microorganism incubated overnight in Mueller Hinton broth, was inoculated to Mueller Hinton agar (MH agaer). […] After incubation at 37° C. for 16 hours, the minimum inhibitory concentrations (MIC μg/ml) were measured.

[[record]]
molecule = "C=C(O/N=C(\\C(=O)N[C@@H]1C(=O)N2C(C(=O)O)=C(C[n+]3ccc(CCS(=O)(=O)[O-])cc3)CS[C@H]12)c1csc(N)n1)C(=O)O"
systemname = "K. pneumoniae PC1-602"
result = "0.025 µg/mL"

[[record]]
molecule = "C=C(O/N=C(\\C(=O)N[C@@H]1C(=O)N2C(C(=O)[O-])=C(C[n+]3cccc(C(=O)O)c3)CS[C@H]12)c1csc(N)n1)C(=O)O"
systemname = "K. pneumoniae PC1-602"
result = "0.025 µg/mL"

[[record]]
molecule = "C=C(O/N=C(\\C(=O)N[C@@H]1C(=O)N2C(C(=O)O)=C(CSc3nnc(C)s3)CS[C@H]12)c1csc(N)n1)C(=O)O"
systemname = "K. pneumoniae PC1-602"
result = "0.025 µg/mL"


Data request: Need MIC of C=C(O/N=C(\C(=O)N[C@@H]1C(=O)N2C(C(=O)O)=C(CSc3nnnn3CC(=O)O)CS[C@H]12)c1csc(N)n1)C(=O)O , thanks.
Data returned: 0.1 µg/mL

Data request: Entry to check: C=C(O/N=C(\C(=O)N[C@@H]1C(=O)N2C(C(=O)O)=C(C[n+]3ccc(CS(=O)(=O)[O-])cc3)CS[C@H]12)c1csc(N)n1)C(=O)O
Data returned: 0.025 µg/mL

Data request: Param item: C=C(O/N=C(\C(=O)N[C@@H]1C(=O)N2C(C(=O)[O-])=C(C[n+]3ccc(C(=O)O)cc3)CS[C@H]12)c1csc(N)n1)C(=O)O
Data returned: 0.025 µg/mL

Data request: Further, for CC(C)(O/N=C(\C(=O)N[C@@H]1C(=O)N2C(C(=O)[O-])=C(C[n+]3ccccc3)CS[C@H]12)c1csc(N)n1)C(=O)O [Ceftazidime, reference compound] ?
Data returned: 0.25 µg/mL

###

System: K. pneumoniae No. 42*
assayComment: in vitro antibacterial activity, agar plate dilution method
Assay type: cell-based
appliedConditions: Klebsiella pneumoniae; 10^6 CFU/ml; β-Lactamase-producing strain; 37° C., 16 hours; read-out: MIC
Recorded MIC values for a group of compounds are listed next.

A selection of reference data follows.
[[record]]
molecularstring = "C=C(O/N=C(\\C(=O)N[C@@H]1C(=O)N2C(C(=O)O)=C(CSc3nc(-c4ccc(O)c(O)c4)cs3)CS[C@H]12)c1csc(N)n1)C(=O)O"
result = "0.05 µg/mL"

[[record]]
molecularstring = "C=C(O/N=C(\\C(=O)N[C@@H]1C(=O)N2C(C(=O)O)=C(CSc3ncc(-c4ccc(O)c(O)c4)o3)CS[C@H]12)c1csc(N)n1)C(=O)O"
result = "0.05 µg/mL"

[[record]]
molecularstring = "C=C(O/N=C(\\C(=O)N[C@@H]1C(=O)N2C(C(=O)O)=C(C[n+]3ccc(CCS(=O)(=O)[O-])cc3)CS[C@H]12)c1csc(N)n1)C(=O)O"
result = "0.39 µg/mL"

[[record]]
molecularstring = "C=C(O/N=C(\\C(=O)N[C@@H]1C(=O)N2C(C(=O)O)=C(CSc3nnc(-c4ccc(O)c(O)c4)s3)CS[C@H]12)c1csc(N)n1)C(=O)O"
result = "0.0125 µg/mL"


Data request: Name the reported MIC value associated with the compound C=C(O/N=C(\C(=O)N[C@@H]1C(=O)N2C(C(=O)O)=C(CSc3nnc(-c4ccc(O)c(O)c4)o3)CS[C@H]12)c1csc(N)n1)C(=O)O
Data returned: 0.025 µg/mL

###

Tested on: K. oxytoca GN10650*
assayComment: in vitro antibacterial activity, agar plate dilution method
Assay type: cell-based
appliedConditions: Klebsiella oxytoca, GN10650, 16 h
Overview of recorded MIC for various compounds
Provide only the numeric value, understood in µg/mL.

Worked cases, answers included:
[[record]]
compound = "C=C(O/N=C(\\C(=O)N[C@@H]1C(=O)N2C(C(=O)O)=C(CSc3nnc(-c4ccc(O)c(O)c4)s3)CS[C@H]12)c1csc(N)n1)C(=O)O"
testreadout = "MIC"
resultnumber = 0.025

[[record]]
compound = "C=C(O/N=C(\\C(=O)N[C@@H]1C(=O)N2C(C(=O)O)=C(CSc3nc(-c4ccc(OC(C)=O)c(OC(C)=O)c4)c(CC(=O)O)s3)CS[C@H]12)c1csc(N)n1)C(=O)O"
testreadout = "MIC"
resultnumber = 0.1


Data request: // query MIC value for entry C=C(O/N=C(\C(=O)N[C@@H]1C(=O)N2C(C(=O)O)=C(CSc3nnc(C)s3)CS[C@H]12)c1csc(N)n1)C(=O)O
Data returned: 0.2

Data request: // same read-out, input: C=C(O/N=C(\C(=O)N[C@@H]1C(=O)N2C(C(=O)[O-])=C(C[n+]3cccc(C(=O)O)c3)CS[C@H]12)c1csc(N)n1)C(=O)O
Data returned: 0.2

Data request: Another compound: C=C(O/N=C(\C(=O)N[C@@H]1C(=O)N2C(C(=O)[O-])=C(C[n+]3cccc(N)c3)CS[C@H]12)c1csc(N)n1)C(=O)O
Data returned: 0.1

Data request: Check C=C(O/N=C(\C(=O)N[C@@H]1C(=O)N2C(C(=O)O)=C(CSc3nnnn3C)CS[C@H]12)c1csc(N)n1)C(=O)O too.
Data returned: 0.05

Data request: Same question, C=C(O/N=C(\C(=O)N[C@@H]1C(=O)N2C(C(=O)[O-])=C(C[n+]3cccc(NC=O)c3)CS[C@H]12)c1csc(N)n1)C(=O)O this time
Data returned: 0.05

Data request: // same read-out, input: CO/N=C(\C(=O)N[C@@H]1C(=O)N2C(C(=O)O)=C(COC(C)=O)CS[C@H]12)c1csc(N)n1 [Cefotaxime, reference compound]
Data returned: 0.39

Data request: Repeat with C=C(O/N=C(\C(=O)N[C@@H]1C(=O)N2C(C(=O)[O-])=C(C[n+]3cccc4c3CCC4)CS[C@H]12)c1csc(N)n1)C(=O)O
Data returned: 0.1

Data request: Likewise for C=C(O/N=C(\C(=O)N[C@@H]1C(=O)N2C(C(=O)[O-])=C(C[n+]3ccc(C(=O)O)cc3)CS[C@H]12)c1csc(N)n1)C(=O)O ?
Data returned: 0.39

Data request: And CC(C)(O/N=C(\C(=O)N[C@@H]1C(=O)N2C(C(=O)[O-])=C(C[n+]3ccccc3)CS[C@H]12)c1csc(N)n1)C(=O)O [Ceftazidime, reference compound] ?
Data returned: 0.1

Data request: And what about the compound C=C(O/N=C(\C(=O)N[C@@H]1C(=O)N2C(C(=O)O)=C(C[n+]3ccc(CS(=O)(=O)[O-])cc3)CS[C@H]12)c1csc(N)n1)C(=O)O ?
Data returned: 0.39

###

System: K. pneumoniae No. 42*
assayComment: in vitro antibacterial activity, agar plate dilution method
Type: cell-based
appliedConditions: Klebsiella pneumoniae, 16 h
testReadout: MIC (µg/mL)
Respond with the bare value in µg/mL.

Past entries and their recorded results:
[[record]]
molecularstring = "C=C(O/N=C(\\C(=O)N[C@@H]1C(=O)N2C(C(=O)[O-])=C(C[n+]3ccc(C(N)=O)cc3)CS[C@H]12)c1csc(N)n1)C(=O)O"
testreadout = "MIC"
units = "µg/mL"
resultnumber = 0.1

[[record]]
molecularstring = "C=C(O/N=C(\\C(=O)N[C@@H]1C(=O)N2C(C(=O)O)=C(CSc3nnnn3CC(=O)O)CS[C@H]12)c1csc(N)n1)C(=O)O"
testreadout = "MIC"
units = "µg/mL"
resultnumber = 0.78

[[record]]
molecularstring = "C=C(O/N=C(\\C(=O)N[C@@H]1C(=O)N2C(C(=O)O)=C(C[n+]3ccc(CS(=O)(=O)[O-])cc3)CS[C@H]12)c1csc(N)n1)C(=O)O"
testreadout = "MIC"
units = "µg/mL"
resultnumber = 0.39

[[record]]
molecularstring = "C=C(O/N=C(\\C(=O)N[C@@H]1C(=O)N2C(C(=O)[O-])=C(C[n+]3cccc(N)c3)CS[C@H]12)c1csc(N)n1)C(=O)O"
testreadout = "MIC"
units = "µg/mL"
resultnumber = 0.1


Attention now shifts to the item below.
Data request: Endpoint output: MIC of C=C(O/N=C(\C(=O)N[C@@H]1C(=O)N2C(C(=O)[O-])=C(C[n+]3cccc4c3CCC4)CS[C@H]12)c1csc(N)n1)C(=O)O . Value?
Data returned: 0.39

###

Test system: E. coli GN5482*
assayComment: in vitro antibacterial activity, agar plate dilution method
Type: cell-based
appliedConditions: Escherichia coli, GN5482, 16 h
Experimental: Now, the in vitro antibacterial activities of the compounds of the present invention against various microorganisms, were measured by the following agar plate dilution method. One platinum loopfull of each test microorganism incubated overnight in Mueller Hinton broth, was inoculated to Mueller Hinton agar (MH agaer). […] After incubation at 37° C. for 16 hours, the minimum inhibitory concentrations (MIC μg/ml) were measured.
Catalogue of MIC readings, one per entry.
# include the unit after the value

Answered examples (5):
[[record]]
compound = "C=C(O/N=C(\\C(=O)N[C@@H]1C(=O)N2C(C(=O)O)=C(CSc3nc(-c4ccc(O)c(O)c4)cs3)CS[C@H]12)c1csc(N)n1)C(=O)O"
systemname = "E. coli GN5482*"
testreadout = "MIC"
result = "0.39 µg/mL"

[[record]]
compound = "C=C(O/N=C(\\C(=O)N[C@@H]1C(=O)N2C(C(=O)O)=C(CSc3nc(C(=O)O)c(-c4ccc(O)c(O)c4)s3)CS[C@H]12)c1csc(N)n1)C(=O)O"
systemname = "E. coli GN5482*"
testreadout = "MIC"
result = "0.39 µg/mL"

[[record]]
compound = "CC(C)(O/N=C(\\C(=O)N[C@@H]1C(=O)N2C(C(=O)[O-])=C(C[n+]3ccccc3)CS[C@H]12)c1csc(N)n1)C(=O)O [Ceftazidime, reference compound]"
systemname = "E. coli GN5482*"
testreadout = "MIC"
result = "1.56 µg/mL"

[[record]]
compound = "C=C(O/N=C(\\C(=O)N[C@@H]1C(=O)N2C(C(=O)[O-])=C(C[n+]3cccc(N)c3)CS[C@H]12)c1csc(N)n1)C(=O)O"
systemname = "E. coli GN5482*"
testreadout = "MIC"
result = "0.2 µg/mL"

[[record]]
compound = "C=C(O/N=C(\\C(=O)N[C@@H]1C(=O)N2C(C(=O)O)=C(COC(C)=O)CS[C@H]12)c1csc(N)n1)C(=O)O"
systemname = "E. coli GN5482*"
testreadout = "MIC"
result = "1.56 µg/mL"


Data request: So what's the measured MIC for this one? C=C(O/N=C(\C(=O)N[C@@H]1C(=O)N2C(C(=O)O)=C(C[n+]3ccc(CS(=O)(=O)[O-])cc3)CS[C@H]12)c1csc(N)n1)C(=O)O
Data returned: 1.56 µg/mL

Data request: Also, C=C(O/N=C(\C(=O)N[C@@H]1C(=O)N2C(C(=O)[O-])=C(C[n+]3cccc(NC=O)c3)CS[C@H]12)c1csc(N)n1)C(=O)O please.
Data returned: 0.1 µg/mL
